Target: sigma-1 receptor (Cavia porcellus, UniProt Q60492)
Sequence (Q60492 whole entry): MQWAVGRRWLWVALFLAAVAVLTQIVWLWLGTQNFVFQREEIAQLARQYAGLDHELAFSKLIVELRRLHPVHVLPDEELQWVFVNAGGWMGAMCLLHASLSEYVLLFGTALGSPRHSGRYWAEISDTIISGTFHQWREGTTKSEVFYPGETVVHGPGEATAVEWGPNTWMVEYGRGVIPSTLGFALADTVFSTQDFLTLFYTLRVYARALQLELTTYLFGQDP
Test: Sigma-1 receptor competitive binding against
Settings: Sigma 1 K1 values (nM) (± SEM, n=3), R^2 value, guinea pig liver membranes, 10 nM (+)-[3H]-pentazocine, brackets: SEM
ASSAY ENDPOINT: Ki

### Prompt What does the record list as Ki for CCCN(Cc1cccc([N+](=O)[O-])c1)C(=O)CCc1ccc(F)cc1 [compound 6] ?
### Response > 100000 nM
